# experiment-notes: Assay for determination of apparent permeability (Papp), bi-directional transport
# measurement-setup: pig, LLC-PK1
readout-label: Papp at 3 h, 1 μM (×10⁻⁶ cm/s)
Give your result in ×10⁻⁶ cm/s as a bare value.

[
  {
    "smiles-structure": "Cc1ccc(CO[C@H]([C@H]2O[C@@H]3SC(N(C)C)=N[C@@H]3[C@@H](O)[C@@H]2O)C(F)(F)F)cc1",
    "unit-info": "×10⁻⁶ cm/s",
    "assay-result": 31.2
  },
  {
    "smiles-structure": "CCCCO[C@H]([C@H]1O[C@@H]2SC(N(C)C)=N[C@@H]2[C@@H](O)[C@@H]1O)C(F)(F)F",
    "unit-info": "×10⁻⁶ cm/s",
    "assay-result": 30.8
  },
  {
    "smiles-structure": "CN(C)C1=N[C@@H]2[C@@H](O)[C@H](O)[C@@H]([C@@H](OCc3ccc(C(F)(F)F)cc3)C(F)(F)F)O[C@@H]2S1",
    "unit-info": "×10⁻⁶ cm/s",
    "assay-result": 28.2
  },
  {
    "smiles-structure": "CNC1=N[C@@H]2[C@@H](O)[C@H](O)[C@@H]([C@@H](OCc3ccccc3)C(F)(F)F)O[C@@H]2S1",
    "unit-info": "×10⁻⁶ cm/s",
    "assay-result": 27
  },
  {
    "smiles-structure": "CNC1=N[C@@H]2[C@@H](O)[C@H](O)[C@@H]([C@@H](OCc3cc(C)c(OC)c(C)c3)C(F)(F)F)O[C@@H]2S1",
    "unit-info": "×10⁻⁶ cm/s",
    "assay-result": 28.9
  },
  {
    "smiles-structure": "COc1ccc(CO[C@@H]([C@H]2O[C@@H]3SC(N(C)C)=N[C@@H]3[C@@H](O)[C@@H]2O)C(F)(F)F)cc1",
    "unit-info": "×10⁻⁶ cm/s",
    "assay-result": 33
  }
]

Now for another entry.
[Q] Fill blank: measured Papp at 3 h, 1 μM of the compound "CN(C)C1=N[C@@H]2[C@@H](O)[C@H](O)[C@@H]([C@@H](OCc3ccc(F)cc3)C(F)(F)F)O[C@@H]2S1" is ____.
[A] 28.8

* * *

# experiment-notes: Assay for determination of apparent permeability (Papp), bi-directional transport
# measurement-setup: pig, LLC-PK1
The label is 1 for Papp at 3 h, 1 μM below 30 ×10⁻⁶ cm/s and 0 for Papp at 3 h, 1 μM equal to or exceeding 30 ×10⁻⁶ cm/s.

[
  {
    "molecule": "CCN(C)C1=N[C@@H]2[C@@H](O)[C@H](O)[C@@H]([C@H](OC)C(F)(F)F)O[C@@H]2S1 [Example 72]",
    "discrete-label": 1
  },
  {
    "molecule": "CNC1=N[C@@H]2[C@@H](O)[C@H](O)[C@@H]([C@](C)(O)C(F)(F)F)O[C@@H]2S1 [Example 158]",
    "discrete-label": 1
  },
  {
    "molecule": "CN[C@H]([C@H]1O[C@@H]2SC(N(C)C)=N[C@@H]2[C@@H](O)[C@@H]1O)C(F)(F)F [Example 16]",
    "discrete-label": 1
  },
  {
    "molecule": "COc1ccc(CO[C@H]([C@H]2O[C@@H]3SC(N(C)C)=N[C@@H]3[C@@H](O)[C@@H]2O)C(F)(F)F)cc1C [Example 54]",
    "discrete-label": 0
  },
  {
    "molecule": "CN(C)C1=N[C@@H]2[C@@H](O)[C@H](O)[C@@H]([C@@H](Oc3ccccc3)C(F)(F)F)O[C@@H]2S1 [Example 107]",
    "discrete-label": 0
  },
  {
    "molecule": "CN(C)C1=N[C@@H]2[C@@H](O)[C@H](O)[C@@H]([C@@H](N(C)C)C(F)(F)F)O[C@@H]2S1 [Example 17]",
    "discrete-label": 0
  },
  {
    "molecule": "CNC1=N[C@@H]2[C@@H](O)[C@H](O)[C@@H]([C@@H](OCc3ccc(C(F)(F)F)cc3)C(F)(F)F)O[C@@H]2S1 [Example 94]",
    "discrete-label": 1
  },
  {
    "molecule": "CNC1=N[C@@H]2[C@@H](O)[C@H](O)[C@@H]([C@@H](OCc3ccc(OC)cc3)C(F)(F)F)O[C@@H]2S1 [Example 97]",
    "discrete-label": 1
  },
  {
    "molecule": "CNC1=N[C@@H]2[C@@H](O)[C@H](O)[C@@H]([C@@H](OCc3ccc(C)cc3)C(F)(F)F)O[C@@H]2S1 [Example 85]",
    "discrete-label": 1
  },
  {
    "molecule": "CN(C)C1=N[C@@H]2[C@@H](O)[C@H](O)[C@@H]([C@@H](OCc3ccc(CCCF)cc3)C(F)(F)F)O[C@@H]2S1 [Example 71]",
    "discrete-label": 0
  }
]

[Q] Just wondering, is Papp at 3 h, 1 μM of CCc1cc(CO[C@H]([C@H]2O[C@@H]3SC(NC)=N[C@@H]3[C@@H](O)[C@@H]2O)C(F)(F)F)ccc1OC [Example 100] below 30 ×10⁻⁶ cm/s?
[A] 1

[Q] Also CNC1=N[C@@H]2[C@@H](O)[C@H](O)[C@@H]([C@@H](OCCC3CCCCC3)C(F)(F)F)O[C@@H]2S1 [Example 80] , if possible.
[A] 1

[Q] Same read-out for CN(C)C1=N[C@@H]2[C@@H](O)[C@H](O)[C@@H]([C@@H](OCc3ccc(OCCF)cc3)C(F)(F)F)O[C@@H]2S1 [Example 55] ?
[A] 1

[Q] And the next one, CN(C)C1=N[C@@H]2[C@@H](O)[C@H](O)[C@@H]([C@@H](OCCCc3ccc(F)cc3)C(F)(F)F)O[C@@H]2S1 [Example 36] ?
[A] 1

[Q] # repeat for CN(C)C1=N[C@@H]2[C@@H](O)[C@H](O)[C@@H]([C@H](OCc3cccc(F)c3)C(F)(F)F)O[C@@H]2S1 [Example 63]
[A] 0
